# TARGET_UNDER_TEST: T1, cynomolgus monkey EL (cynomolgus monkey)
# T1 construct: Heparin extract; also called cynomolgus EL; Cynomolgus EL
# ASSAY_COMMENT: Biacore; EL captured by anti-C2-tag Ab; bivalent fit
EXPERIMENTAL_ENDPOINT: pKd
Here pKd is given on a logarithmic scale as minus log10 of the concentration in mol/L.

Look over these answered cases.
>  <BINDER>
7D4 (antibody, mouse IgG1, V domains shown, mouse IgG1 from hybridoma) VH: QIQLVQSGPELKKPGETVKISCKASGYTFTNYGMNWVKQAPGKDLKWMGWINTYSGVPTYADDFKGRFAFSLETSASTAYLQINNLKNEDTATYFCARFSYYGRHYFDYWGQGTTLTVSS VL: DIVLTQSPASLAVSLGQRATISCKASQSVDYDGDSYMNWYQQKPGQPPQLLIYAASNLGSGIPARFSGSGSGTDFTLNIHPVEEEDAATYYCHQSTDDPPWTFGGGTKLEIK

>  <EXPERIMENTAL_ENDPOINT>
pKd

>  <ASSAY_RESULT>
8.72

$$$$
>  <BINDER>
19E7 (antibody, mouse IgG2a, V domains shown, mouse IgG2a from hybridoma; also called 19E1(19E7)) VH: QVQLQQPGSVLVRPGASVKLSCKASGYTFTTYWMHWVKQRPGQGLEWIGEIHPYSGNNNNNEKFKGKATLTVDTSSSTAYVDLSRLTSEDSAVYYCARYDSNYVFAYWGQGTLVTVSA VL: QIVLTQSPAIMSASPGEGVTITCSASSSVSYMHWFQQKPGTSPKLWIYSTSNLASGVPARFSGSGSGTSYSLTISRMEAEDAATYYCQQRDSYLTFGSGTKLEVK

>  <EXPERIMENTAL_ENDPOINT>
pKd

>  <ASSAY_RESULT>
8.48

$$$$
>  <BINDER>
53A11 (antibody, mouse IgG2a, V domains shown, mouse IgG2a from hybridoma; also called 53A11 (mouse mAb)) VH: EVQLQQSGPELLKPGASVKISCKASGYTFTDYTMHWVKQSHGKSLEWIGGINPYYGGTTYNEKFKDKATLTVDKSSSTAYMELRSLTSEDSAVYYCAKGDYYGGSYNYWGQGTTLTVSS VL: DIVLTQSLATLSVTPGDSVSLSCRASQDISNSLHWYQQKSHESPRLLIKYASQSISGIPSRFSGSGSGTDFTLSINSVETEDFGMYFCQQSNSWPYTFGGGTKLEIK

>  <EXPERIMENTAL_ENDPOINT>
pKd

>  <ASSAY_RESULT>
8.38

$$$$
>  <BINDER>
14E1 (antibody, mouse IgG1, V domains shown, mouse IgG1 from hybridoma) VH: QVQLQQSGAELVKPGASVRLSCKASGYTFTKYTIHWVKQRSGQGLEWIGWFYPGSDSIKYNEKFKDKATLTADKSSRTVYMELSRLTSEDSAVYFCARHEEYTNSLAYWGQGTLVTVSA VL: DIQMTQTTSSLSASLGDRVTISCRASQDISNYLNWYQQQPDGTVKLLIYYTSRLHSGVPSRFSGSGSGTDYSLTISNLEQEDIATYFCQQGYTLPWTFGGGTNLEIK

>  <EXPERIMENTAL_ENDPOINT>
pKd

>  <ASSAY_RESULT>
8.23

$$$$
>  <BINDER>
23H8 (antibody, mouse IgG2a, V domains shown, mouse IgG2a from hybridoma; also called 23H8 (mouse mAb)) VH: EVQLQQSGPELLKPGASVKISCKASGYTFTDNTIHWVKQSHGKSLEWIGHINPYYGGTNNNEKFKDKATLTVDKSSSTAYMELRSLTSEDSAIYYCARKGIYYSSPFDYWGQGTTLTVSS VL: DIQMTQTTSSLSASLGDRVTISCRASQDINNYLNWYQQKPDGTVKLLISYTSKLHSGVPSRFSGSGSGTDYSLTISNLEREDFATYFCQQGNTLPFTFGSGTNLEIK

>  <EXPERIMENTAL_ENDPOINT>
pKd

>  <ASSAY_RESULT>
8.21

$$$$

Asked: Fill blank: measured pKd of the binder 13B3 (antibody, mouse IgG2a, V domains shown, mouse IgG2a from hybridoma; also called 13B3 (mouse mAb)) VH: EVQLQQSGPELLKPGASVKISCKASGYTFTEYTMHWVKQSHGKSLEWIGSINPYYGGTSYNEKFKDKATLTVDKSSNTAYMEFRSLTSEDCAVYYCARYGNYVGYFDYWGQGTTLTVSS VL: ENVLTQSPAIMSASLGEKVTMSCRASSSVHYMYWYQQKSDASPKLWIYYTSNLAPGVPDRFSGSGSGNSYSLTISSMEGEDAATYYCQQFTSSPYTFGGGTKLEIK is ____.
Given back: 8.06
